Measured CTG-3D luminescence at 96 h values are reported for all entries that follow.
System: HCI-015 (organoid from a triple-negative breast cancer xenograft)
TEST DETAILS: CTG-3D luminescence at 96 h relative to day-0 seeding control (ratio to day 0); higher = more growth / less cytotoxicity; PDxO 3D drug screen, 96 h, CTG-3D normalised to day-0 seeding control.
TEST CONDITIONS: 1 µM; days in culture: 218
MEASURE NAME: CTG-3D luminescence at 96 h

[[record]]
compound = "C/C=C1\\NC(=O)[C@H]2CSSCC/C=C/[C@H](CC(=O)N[C@H](C(C)C)C(=O)N2)OC(=O)[C@H](C(C)C)NC1=O"
reported_measurement = -0.0737

[[record]]
compound = "CCN1CCN(Cc2ccc(Nc3ncc(F)c(-c4cc(F)c5nc(C)n(C(C)C)c5c4)n3)nc2)CC1"
reported_measurement = 1.48

[[record]]
compound = "CN(Cc1cnc2nc(N)nc(N)c2n1)c1ccc(C(=O)N[C@@H](CCC(=O)O)C(=O)O)cc1 [methotrexate]"
reported_measurement = 1.48

[[record]]
compound = "CCN(c1cc(C#CCN2CCOCC2)cc(C(=O)NCc2c(C)cc(C)[nH]c2=O)c1C)[C@H]1CC[C@H](N(C)CCOC)CC1"
reported_measurement = 1.67

[[record]]
compound = "NC(=O)Nc1cc(-c2cccc(F)c2)sc1C(=O)N[C@H]1CCCNC1"
reported_measurement = 0.211

[[record]]
compound = "O=C(/C=C/c1cccnc1)NCCCCC1CCN(C(=O)c2ccccc2)CC1"
reported_measurement = 0.147

[[record]]
compound = "CS(=O)(=O)c1ccc(C(=O)Nc2ccc(Cl)c(-c3ccccn3)c2)c(Cl)c1"
reported_measurement = 1.73

[[record]]
compound = "COc1cccc2c1C(=O)c1c(O)c3c(c(O)c1C2=O)C[C@@](O)(C(=O)CO)C[C@@H]3O[C@H]1C[C@H](N)[C@H](O)[C@H](C)O1"
reported_measurement = 0.0701


###

Test system: HCI-019 (organoid from a triple-negative breast cancer xenograft)
TEST DETAILS: CTG-3D luminescence at 96 h relative to day-0 seeding control (ratio to day 0); higher = more growth / less cytotoxicity; PDxO 3D drug screen (set 2), 96 h, CTG-3D normalised to day-0 seeding control.
TEST CONDITIONS: 0.005 µM; days in culture: 215
Measured CTG-3D luminescence at 96 h values are reported for all entries that follow.
MEASURE NAME: CTG-3D luminescence at 96 h

[[record]]
molecule = "CC(=O)c1c(C)c2cnc(Nc3ccc(N4CCNCC4)cn3)nc2n(C2CCCC2)c1=O"
measure_name = "CTG-3D luminescence at 96 h"
reported_measurement = 2.06

[[record]]
molecule = "COc1cccc2c1C(=O)c1c(O)c3c(c(O)c1C2=O)C[C@@](O)(C(=O)CO)C[C@@H]3O[C@H]1C[C@H](N)[C@@H](O)[C@H](C)O1 [epirubicin]"
measure_name = "CTG-3D luminescence at 96 h"
reported_measurement = 1.32

[[record]]
molecule = "CS(=O)(=O)CCNCc1ccc(-c2ccc3ncnc(Nc4ccc(OCc5cccc(F)c5)c(Cl)c4)c3c2)o1"
measure_name = "CTG-3D luminescence at 96 h"
reported_measurement = 1.85

[[record]]
molecule = "CCOc1ccn(-c2ccc(F)cc2)c(=O)c1C(=O)Nc1ccc(Oc2ccnc(N)c2Cl)c(F)c1"
measure_name = "CTG-3D luminescence at 96 h"
reported_measurement = 1.22

